# study system: UniProtKB P43405
# assay remarks: Syk kinase inhibition test (HTRF method)
# Assay type: biochemical
# reported conditions: HTRF, 100 μM ATP, 30 min room temperature, average; read-out: sykHTRF ave IC50
pIC50: −log10 of the molar value.
result type: pIC50

Worked cases, pIC50 given:
{"compound": "Cc1ccnc(Nc2cccc(-c3cnc([C@H]4CC[C@H](C(=O)N5CCC(NS(C)(=O)=O)C5)CC4)s3)n2)c1 (some centres unmarked)", "pIC50": "> 7.00"}
{"compound": "Cc1ccnc(Nc2cccc(-c3cnc(CNC(=O)CO)s3)n2)c1", "pIC50": "6.00 to 7.00"}
{"compound": "Cc1ccnc(Nc2cccc(-c3cnc(CCO)s3)n2)c1", "pIC50": "> 7.00"}

For the compound shown here, `Cc1ccnc(Nc2cccc(-c3cnc(Cc4ccc(C(=O)N5CCC(O)CC5)cc4)s3)n2)c1` , give the reported pIC50.
< 6.00

Then `Cc1ccnc(Nc2cccc(-c3cnc(C(=O)CCC(=O)O)s3)n2)c1` ?
6.00 to 7.00

Moving on to the next compound: `CNC(=O)COCc1ncc(-c2cccc(Nc3cc(C)ccn3)n2)s1`
6.00 to 7.00

Same question, `Cc1ccnc(Nc2cccc(-c3cnc(CCCCO)s3)n2)c1` this time
> 7.00

###

# Test system: cultured human mast cells
# assay remarks: Degranulation inhibition test using cultured human mast cells (IgE cross-linking, β-Hexosaminidase release)
# Type: cell-based
# reported conditions: Mast cell; cultured human mast cells, anti-hIgE stimulation, β-Hexosaminidase index, average; read-out: human degranulation ave. IC50
result type: IC50

Study these solved cases before continuing.
{"molecule": "CC(=O)OC(Cc1ccc(O)cc1)c1ncc(-c2cccc(Nc3cc(C)ccn3)n2)s1 (centres unmarked) [Compound A-366]", "IC50": "100 to 1000 nM"}
{"molecule": "CCOC(=O)CC(=O)N[C@@H](C)c1ncc(-c2cccc(Nc3cc(C)ccn3)n2)s1 [Compound A-122]", "IC50": "> 1000 nM"}
{"molecule": "Cc1ccnc(Nc2cccc(-c3cnc(CN4CCC(C(=O)O)CC4)s3)n2)c1 [Compound A-168]", "IC50": "> 1000 nM"}
{"molecule": "O=C([C@H]1CC[C@H](c2ncc(-c3cccc(Nc4cc5ccccc5cn4)n3)s2)CC1)N1CCC(O)CC1 [Compound A-307]", "IC50": "100 to 1000 nM"}

Entry COc1ccnc(Nc2cccc(-c3cnc([C@H]4CC[C@H](C(=O)N5CCC(O)CC5)CC4)s3)n2)c1 [Compound A-291] : reported IC50 = ?
100 to 1000 nM

Further, for Cc1ccnc(Nc2cccc(-c3cnc(CN4CCC(N)CC4)s3)n2)c1 [Compound A-197] ?
100 to 1000 nM

Thanks! And Cc1ccnc(Nc2cccc(-c3cnc(CC(C)(C)CC(=O)O)s3)n2)c1 [Compound A-157] ?
> 1000 nM

Item: Cc1ccnc(Nc2cccc(-c3cnc(CCc4ccc(C(=O)N5C[C@@H](O)[C@@H](O)C5)cc4)s3)n2)c1 [Compound A-223]
100 to 1000 nM

###

Below is a list of entries, each paired with its recorded pIC50 value.
# study system: GST-Syk Full Protein (human) (Homo sapiens, UniProt P43405)
# assay remarks: Syk kinase inhibition test (HTRF method)
# Type: biochemical
# reported conditions: Tables 1-x, compounds A; read-out: sykHTRF ave IC50
pIC50: −log10 of the molar value.

{"molecule": "CC(=O)NCCN(c1ncc(-c2cccc(Nc3cc(C)ccn3)n2)s1)C1CCN(C(C)=O)CC1", "reported": "6.00 to 7.00"}
{"molecule": "Cc1ccnc(Nc2cccc(-c3cnc(COCC(=O)N4C[C@H](NCc5ccccc5)[C@@H](O)C4)s3)n2)c1", "reported": "< 6.00"}
{"molecule": "CCC(=O)N1CCN(c2ncc(-c3cccc(Nc4cc(C)ccn4)n3)s2)CC1", "reported": "> 7.00"}

Would you kindly share the measured pIC50 for `Cc1ccnc(Nc2cccc(-c3cnc(N(CC(=O)N(C)C)[C@H]4CC[C@H](C(=O)O)CC4)s3)n2)c1` ?
6.00 to 7.00

Try this molecule too: `Cc1ccnc(Nc2cccc(-c3cnc(N(CC(=O)N(C)C)C[C@H]4CC[C@H](C(=O)O)CC4)s3)n2)c1`
6.00 to 7.00

How about this molecule: Cc1ccnc(Nc2cccc(-c3cnc(N4CCN(C(=O)C5CCC(O)CC5)CC4)s3)n2)c1 (stereo not shown)
6.00 to 7.00

// query: `Cc1ccnc(Nc2cccc(-c3cnc(N(C[C@H]4CC[C@H](C(=O)O)CC4)C(C)C)s3)n2)c1`
> 7.00

###

Quick reference: pIC50 of the listed items.
# System: cultured human mast cells
# assay remarks: Degranulation inhibition test using cultured human mast cells (IgE cross-linking, β-Hexosaminidase release)
# Type: cell-based
# reported conditions: Mast cell; cultured human mast cells, anti-hIgE stimulation, β-Hexosaminidase index, average; read-out: human degranulation ave. IC50
pIC50: −log10 of the molar value.

{"smiles notation": "Cc1ccnc(Nc2cccc(-c3cnc(CCC4CCNCC4)s3)n2)c1", "reported": "< 6.00"}
{"smiles notation": "Cc1ccnc(Nc2cccc(-c3cncs3)n2)c1", "reported": "< 6.00"}
{"smiles notation": "Cc1ccnc(Nc2cccc(-c3cnc(CNCCO)s3)n2)c1", "reported": "< 6.00"}
{"smiles notation": "Cc1ccnc(Nc2cccc(-c3cnc(COC(=O)NC[C@H]4CC[C@H](C(=O)O)CC4)s3)n2)c1", "reported": "< 6.00"}

Then there is this molecule:
Entry `CC(=O)N(C)[C@@H](C)c1ncc(-c2cccc(Nc3cc(C)ccn3)n2)s1` : reported pIC50 = ?
6.00 to 7.00

###

Listed below: pIC50 values for each entry.
# study system: GST-Syk Full Protein (human) (Homo sapiens, UniProt P43405)
# assay remarks: Syk kinase inhibition test (HTRF method)
# Assay type: biochemical
# reported conditions: Tables 1-x, compounds A; read-out: sykHTRF ave IC50
pIC50: −log10 of the molar value. Where a name gives a salt, the structure may show the parent alone.

Some compounds with known pIC50 results, for comparison:
{"compound": "Cc1ccnc(Nc2cccc(-c3cnc(N4CCN(S(N)(=O)=O)CC4)s3)n2)c1", "study system": "GST-Syk Full Protein (human) (Homo sapiens, UniProt P43405)", "pIC50": "> 7.00"}
{"compound": "Cc1ccnc(Nc2cccc(-c3cnc(N4CCC[C@H]4C(N)=O)s3)n2)c1", "study system": "GST-Syk Full Protein (human) (Homo sapiens, UniProt P43405)", "pIC50": "> 7.00"}

Recorded pIC50 for `Cc1ccc(Nc2cccc(-c3cnc(N4CCC(CC(=O)O)CC4)s3)n2)nc1` , please?
6.00 to 7.00

Can you handle `Cc1ccnc(Nc2cccc(-c3cnc(N(C)C4CCOCC4)s3)n2)c1` next?
> 7.00

What about `Cc1ccnc(Nc2cccc(-c3cnc(N(C)c4ccc(CCC(=O)O)cc4)s3)n2)c1` ?
> 7.00

Try this compound next: `Cc1ccnc(Nc2cccc(-c3cnc(CNC(=O)c4c[nH]cn4)s3)n2)c1`
6.00 to 7.00

What about this compound? CNC(=O)COCC1CCCN(c2ncc(-c3cccc(Nc4cc(C)ccn4)n3)s2)C1 (stereo not shown)
> 7.00

Moving on to Cc1ccnc(Nc2cccc(-c3cnc(N(C)C4CCC(C(=O)N(C)C)CC4)s3)n2)c1 (stereo not shown)
6.00 to 7.00

What would you report for `Cc1ccnc(Nc2cccc(-c3cnc(N4CCC(CC(=O)NCCO)CC4)s3)n2)c1` ?
> 7.00

Same lookup for `CNC(=O)CN(C)Cc1ncc(-c2cccc(Nc3cc(C)ccn3)n2)s1` , please.
6.00 to 7.00

Same lookup for `CN(Cc1ccc(C(=O)O)cc1)c1ncc(-c2cccc(Nc3cc(C4(C)OCCO4)ccn3)n2)s1` , please.
> 7.00

Cool, now `Cc1ccnc(Nc2cccc(-c3cnc(N4CCN(C(=O)OC(C)(C)C)CC4)s3)n2)c1`
< 6.00

Next compound: `CC(=O)N[C@H]1CN(C(=O)COCc2ncc(-c3cccc(Nc4cc(C)ccn4)n3)s2)C[C@@H]1O`
< 6.00

Another compound to look at: `Cc1ccnc(Nc2cccc(-c3cnc(N4CCC(NC(=O)C5CCOCC5)CC4)s3)n2)c1`
6.00 to 7.00

Also, CNC(=O)[C@@H]1CCCN1c1ncc(-c2cccc(Nc3cc(C)ccn3)n2)s1 [Compound A-488, dihydrochloride] please.
> 7.00

Same lookup for Cc1ccnc(Nc2cccc(-c3cnc(CCC4CCC(C(=O)O)CC4)s3)n2)c1 (stereo not shown) , please.
> 7.00

###

# study system: GST-Syk Full Protein (human) (Homo sapiens)
# assay remarks: Syk kinase inhibition test (HTRF method)
# Type: biochemical
# reported conditions: Tables 2-x, thiophene compounds B; read-out: sykHTRK ave IC50
pIC50: −log10 of the molar value. Structures can show the parent of a compound that is named as a salt.
result type: pIC50

Sample records with pIC50:
{"molecule": "CC(=O)c1sc(-c2cccc(Nc3cc(C)ccn3)n2)cc1C [Compound B-40]", "result type": "pIC50", "reported": "6.00 to 7.00"}
{"molecule": "CC(=O)N(CCC(=O)O)Cc1ccc(-c2cccc(Nc3cc(C)ccn3)n2)s1 [Compound B-124, hydrochloride]", "result type": "pIC50", "reported": "> 7.00"}
{"molecule": "Cc1ccnc(Nc2cccc(-c3ccc(C(=O)N4CCC(CC(=O)O)CC4)s3)n2)c1 [Compound B-113]", "result type": "pIC50", "reported": "6.00 to 7.00"}
{"molecule": "Cc1ccnc(Nc2cccc(-c3ccc(CN(Cc4ccccc4)C(=O)CCC(=O)O)s3)n2)c1 [Compound B-126]", "result type": "pIC50", "reported": "6.00 to 7.00"}
{"molecule": "CCOC(=O)c1cc(Nc2cc(C)ccn2)nc(-c2ccc(C(C)=O)s2)c1 [Compound B-77]", "result type": "pIC50", "reported": "< 6.00"}

Suppose we examine the molecule Cc1ccnc(Nc2cccc(-c3ccc(CN(C)C(=O)[C@H]4CC[C@H](C(=O)O)CC4)s3)n2)c1 [Compound B-123] ; what pIC50 value has been reported?
6.00 to 7.00

Now try C/C(=C\C(=O)O)c1ccc(-c2cccc(Nc3cc(C)ccn3)n2)s1 [Compound B-114] .
6.00 to 7.00

Same question, Cc1ccnc(Nc2cccc(-c3ccc(CO)s3)n2)c1 [Compound B-12] this time
> 7.00

Data credit: patent US7803801B2
